- target.desc: T1, Brn2 DNA-binding domain (BD-Brn2) (Mus musculus (B6), UniProt P31360 336-435)
- T1 sequence: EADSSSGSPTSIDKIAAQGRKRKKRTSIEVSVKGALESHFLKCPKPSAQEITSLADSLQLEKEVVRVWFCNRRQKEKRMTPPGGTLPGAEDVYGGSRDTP
- protocol.details: EMSA; 10% glycerol, 20 mM HEPES pH 7.8, 45 mM KCl, 10 mM NaCl, 1 mM EDTA, 1 mM DTT, 0.2 ug/uL BSA, 0.1% NP-40, 50 ng poly-dIdC; 20 ng each GST protein; room temperature 30 min (heterodimers 4 C); 6% PAGE 0.25x TBE
- condition.summary: protein: recombinant; tags: GST (N-terminal, pGEX-6P-1); label: 32P-dCTP fill-in of the 5' (dG)5 overhangs of both strands (Methods; control probes are given with GGG)

binder	binding result
36 (dsDNA) DNA 1: GGGGGTGCATACATTTGTAATTCATTTAGGTGGTTTTCCCCC DNA 2: GGGGGAAAACCACCTAAATGAATTACAAATGTATGCACCCCC	binds

Provenance of the data: paper PMC3713010
